molecular target: RIPK1 (recombinant GST-RIPK1 kinase domain, residues 1-327) (Homo sapiens (Human), UniProt Q13546); assay: RIPK1-ADP-Glo Enzymatic Assay; type: biochemical; settings: ADP-Glo; 25 nM GST-RIPK1, 300 μM ATP; assay lower limit ~25 nM; read-out: RIPK1 V0 Ec50
Sequence (Q13546 1-327): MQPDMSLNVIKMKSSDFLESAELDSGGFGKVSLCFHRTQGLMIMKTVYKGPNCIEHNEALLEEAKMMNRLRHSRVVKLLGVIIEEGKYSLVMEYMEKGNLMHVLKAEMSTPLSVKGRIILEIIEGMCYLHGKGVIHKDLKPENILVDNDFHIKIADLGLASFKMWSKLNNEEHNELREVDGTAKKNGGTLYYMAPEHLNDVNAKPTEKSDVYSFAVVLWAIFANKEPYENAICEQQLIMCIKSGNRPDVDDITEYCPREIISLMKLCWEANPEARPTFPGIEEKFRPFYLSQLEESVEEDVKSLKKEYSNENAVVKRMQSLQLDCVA
assay-metric: EC50

> print(dat)
                                   molecule  assay.metric  reading
1  Cc1nc(N2CCC3(CC2)O[C@@H]2CC[C@@H](c4cc(F)cc(F)c4)N2C3=O)ccc1C#N          EC50  < 25 nM
2  O=C1N2[C@@H](CC[C@H]2c2ccccc2F)OC12CCN(c1cccc3ncnn13)CC2          EC50  < 25 nM
3  CC1C[C@@]2(CCN1C(=O)c1ccccc1)O[C@@H]1CC[C@@H](c3cccc(F)c3)N1C2=O (stereo partly drawn) [Example 6.160]          EC50  < 25 nM
